Value source: PubChem BioAssay AID1259321

Molecular target: Nuclear receptor subfamily 1 group D member 1 (Homo sapiens)
Experiment: modulators of Rev-erb alpha DNA binding, dose response, biochemical, FITC-DNA, fluorescence polarization (AID 1259321)
The source made the active and inactive calls.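 The calls were made as follows: active = half-maximal concentration for changing protein binding to DNA, from the fitted dose curve, below 10 micromolar; inactive = the rest.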
The reply should be one of these categories: 1 (yes) (active), 0 (no) (inactive)

Problem: Just curious, what result did "COc1ccccc1N(C)S(=O)(=O)c1ccc(C(=O)Nc2nc(C)c(C(C)=O)s2)cc1" get here?
Result: 0 (no)

Problem: Just curious, what result did "CCn1c(=NC(=O)c2ccc(N3C(=O)CCC3=O)cc2)sc2c(OC)ccc(OC)c21" get here?
Result: 1 (yes)

Problem: Just curious, what result did "CCCCOc1ccc(C(=O)n2ccc3ccc(-c4ccc5ccn(Cc6ccccc6)c5c4)cc32)cc1" get here?
Result: 0 (no)

Problem: Just curious, what result did "CN1C(=O)CSC1=NCC12CC3CC(CC(C3)C1)C2" get here?
Result: 1 (yes)

Problem: Just curious, what result did "COc1ccc2[nH]c(C(=O)Nc3ccc(C)c(F)c3)cc2c1" get here?
Result: 1 (yes)

Problem: Just curious, what result did "CCN(CC)C(=O)CSc1nc(C)cc(-c2cccs2)c1C#N" get here?
Result: 1 (yes)

Problem: Just curious, what result did "Cc1ccc(NC(=O)CSc2nc3ncc(Br)cc3[nH]2)cc1C" get here?
Result: 0 (no)

Problem: Just curious, what result did "COc1ccc(S(=O)(=O)N2CCc3ccccc32)cc1C(=O)Nc1ccc(NC(C)=O)cc1" get here?
Result: 1 (yes)

Problem: Just curious, what result did "Cc1c(Cl)ccc2c(C(N)=O)cc(-c3ccccn3)nc12" get here?
Result: 1 (yes)

Problem: Just curious, what result did "C=CCNC(=O)c1ccc(-c2nc(-c3ccc(Cl)cc3Cl)cs2)cc1" get here?
Result: 1 (yes)

Problem: Just curious, what result did "O=C(CCCn1c(=S)[nH]c2cc3c(cc2c1=O)OCO3)NCc1cccc(Cl)c1" get here?
Result: 0 (no)

Problem: Just curious, what result did "CCOc1cc2[nH]c(=S)n(CCC(=O)N3CCc4ccccc4C3)c(=O)c2cc1OCC" get here?
Result: 0 (no)

Problem: Just curious, what result did CC1CC1C(=O)Nc1nc(-c2cccs2)c(-c2cccs2)s1 (configuration not stated) get here?
Result: 1 (yes)

Problem: Just curious, what result did "Cc1sc2nc(N3CCOCC3)[nH]c(=O)c2c1-c1ccccc1" get here?
Result: 1 (yes)

Problem: Just curious, what result did "O=c1c2ccccc2nc2sc(Nc3cccc(Cl)c3)nn12" get here?
Result: 1 (yes)

Problem: Just curious, what result did "COc1ccc(-c2cc(-c3ccc(OC)cc3)c(C#N)c(SC)n2)cc1" get here?
Result: 1 (yes)

Problem: Just curious, what result did "Cc1ccc(S(=O)(=O)c2nc(Nc3ccccc3C#N)sc2Cl)cc1" get here?
Result: 0 (no)

Problem: Just curious, what result did "COc1ccc(-n2c(SCC(=O)Nc3cc(C)on3)nc3c([nH]c4ccccc43)c2=O)cc1" get here?
Result: 0 (no)

Problem: Just curious, what result did "CC(C)CCSc1nc(N)c(C#N)cc1C#N" get here?
Result: 1 (yes)

Problem: Just curious, what result did "COC(=O)c1ccc(Cn2ccc3ccc(-c4ccc5ccn(C(=O)c6ccccc6C)c5c4)cc32)cc1" get here?
Result: 1 (yes)

Problem: Just curious, what result did "O=C(CCS(=O)(=O)c1ccccc1)Nc1ccccc1-c1nc2ccccc2s1" get here?
Result: 1 (yes)

Problem: Just curious, what result did "Clc1ccccc1-c1nn2c(-c3cc(-c4ccccc4)n[nH]3)nnc2s1" get here?
Result: 0 (no)
